# experimental_system: hMAO-A (Homo sapiens)
# Sequence (P21397 whole entry): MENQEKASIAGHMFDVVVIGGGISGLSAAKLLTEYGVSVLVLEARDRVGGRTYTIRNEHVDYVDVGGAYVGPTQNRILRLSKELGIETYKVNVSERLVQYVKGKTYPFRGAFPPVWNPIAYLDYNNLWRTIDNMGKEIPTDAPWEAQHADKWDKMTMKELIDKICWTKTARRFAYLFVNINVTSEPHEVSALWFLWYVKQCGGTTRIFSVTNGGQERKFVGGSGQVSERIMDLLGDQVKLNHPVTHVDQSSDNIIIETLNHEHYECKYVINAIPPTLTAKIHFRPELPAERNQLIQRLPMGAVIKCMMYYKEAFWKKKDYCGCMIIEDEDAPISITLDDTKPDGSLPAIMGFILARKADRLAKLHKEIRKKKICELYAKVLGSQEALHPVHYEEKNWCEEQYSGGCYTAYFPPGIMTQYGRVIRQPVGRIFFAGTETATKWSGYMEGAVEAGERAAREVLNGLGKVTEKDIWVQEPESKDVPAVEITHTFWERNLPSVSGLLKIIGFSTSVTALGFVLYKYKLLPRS
# procedure_text: In vitro hMAO-inhibitory assay (MAO-Glo), hMAO-A
# Format: biochemical
# experimental_parameters: mean ± SD of triplicate experiments
assay_readout: IC50 (µM)
Write the number in µM without appending the unit.

Retrieve IC50 measured for COc1ccc(-c2oc3c(CC=C(C)C)c(O[C@@H]4O[C@H](CO)[C@@H](O)[C@H](O)[C@H]4O)cc(O)c3c(=O)c2O[C@@H]2O[C@@H](C)[C@H](O)[C@@H](O)[C@H]2O)cc1 and print it.
422

---

Here, each record is paired with measured IC50 data.
# experimental_system: hMAO-B (Homo sapiens, UniProt P27338)
# Sequence (P27338 whole entry): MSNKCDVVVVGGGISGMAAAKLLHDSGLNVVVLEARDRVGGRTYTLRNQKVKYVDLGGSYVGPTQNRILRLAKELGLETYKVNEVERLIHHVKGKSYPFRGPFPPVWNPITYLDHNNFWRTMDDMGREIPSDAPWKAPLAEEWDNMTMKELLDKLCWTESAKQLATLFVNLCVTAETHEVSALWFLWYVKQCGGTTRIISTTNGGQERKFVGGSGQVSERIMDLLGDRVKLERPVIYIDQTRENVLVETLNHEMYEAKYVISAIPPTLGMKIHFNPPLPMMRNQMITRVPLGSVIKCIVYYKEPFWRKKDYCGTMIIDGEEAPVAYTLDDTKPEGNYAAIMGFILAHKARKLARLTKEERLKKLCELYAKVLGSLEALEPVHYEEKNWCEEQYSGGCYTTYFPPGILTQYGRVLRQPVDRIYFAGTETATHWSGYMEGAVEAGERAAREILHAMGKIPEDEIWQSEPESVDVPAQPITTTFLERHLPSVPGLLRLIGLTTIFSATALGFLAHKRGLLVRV
# procedure_text: In vitro hMAO-inhibitory assay (MAO-Glo), hMAO-B
# Assay type: biochemical
# experimental_parameters: mean ± SD of triplicate experiments

compound="COc1ccc(-c2oc3c(CC=C(C)C)c(O[C@@H]4O[C@H](CO)[C@@H](O)[C@H](O)[C@H]4O)cc(O)c3c(=O)c2O[C@@H]2O[C@@H](C)[C@H](O)[C@@H](O)[C@H]2O)cc1 [Icariin, icariin]" experimental_system="hMAO-B (Homo sapiens, UniProt P27338)" test_value="> 500 µM"

In one line, give reported IC50 of the entry COc1ccc(-c2oc3c(CC=C(C)C)c(O)cc(O)c3c(=O)c2O)cc1 [Icaritin, icaritin] .
> 500 µM
